Sourced from ChEMBL document CHEMBL5108036

MIC by entry:
- Tested on: Staphylococcus aureus
- TEST_DESCRIPTION: Antibacterial activity against Staphylococcus aureus ATCC 9144 incubated for 48 hrs and measured by broth microdilution assay
- Assay type: functional
Please state the figure in µg/mL; there is no need to write the unit.

Here is how some compounds turned out for MIC.
{"COMPOUND": "Cl.Cl.NCCCN1C(=O)N(CCCN)C(=O)C(Cc2ccc(Br)c(Cl)c2)(Cc2ccc(Br)c(Cl)c2)C1=O", "TEST_TARGET": "Staphylococcus aureus", "NUMERIC_VALUE": 8}
{"COMPOUND": "CCCCCCC1(CCCCCC)C(=O)N(CCCCN)C(=O)N(CCCCN)C1=O.O=C(O)C(F)(F)F.O=C(O)C(F)(F)F", "TEST_TARGET": "Staphylococcus aureus", "NUMERIC_VALUE": 16}
{"COMPOUND": "NCCCCN1C(=O)N(CCCCN)C(=O)C(Cc2c(Br)cc(Br)cc2Br)(Cc2c(Br)cc(Br)cc2Br)C1=O.O=C(O)C(F)(F)F.O=C(O)C(F)(F)F", "TEST_TARGET": "Staphylococcus aureus", "NUMERIC_VALUE": 2}
{"COMPOUND": "NCCCCCCN1C(=O)N(CCCCCCN)C(=O)C(Cc2cc(Br)cc(Br)c2)(Cc2cc(Br)cc(Br)c2)C1=O.O=C(O)C(F)(F)F.O=C(O)C(F)(F)F", "TEST_TARGET": "Staphylococcus aureus", "NUMERIC_VALUE": 4}
{"COMPOUND": "Cl.Cl.N=C(N)NCCCN1C(=O)N(CCCNC(=N)N)C(=O)C(Cc2ccc(Br)c(Cl)c2)(Cc2ccc(Br)c(Cl)c2)C1=O", "TEST_TARGET": "Staphylococcus aureus", "NUMERIC_VALUE": 0.5}
{"COMPOUND": "N=C(N)NCCCN1C(=O)N(CCCNC(=N)N)C(=O)C(Cc2ccc(C(F)(F)F)cc2)(Cc2cc(Br)cc(Br)c2)C1=O.O=C(O)C(F)(F)F.O=C(O)C(F)(F)F (stereo not drawn)", "TEST_TARGET": "Staphylococcus aureus", "NUMERIC_VALUE": 4}

// next entry
Item "CC(C)(C)c1ccc(CC2(Cc3cc(Br)cc(Br)c3)C(=O)N(CCCN)C(=O)N(CCCN)C2=O)cc1.O=C(O)C(F)(F)F.O=C(O)C(F)(F)F" was tested on Staphylococcus aureus; the reported MIC is 4
